Biological target: IGF1R (Homo sapiens, UniProt P08069)
Sequence (P08069 31-1367): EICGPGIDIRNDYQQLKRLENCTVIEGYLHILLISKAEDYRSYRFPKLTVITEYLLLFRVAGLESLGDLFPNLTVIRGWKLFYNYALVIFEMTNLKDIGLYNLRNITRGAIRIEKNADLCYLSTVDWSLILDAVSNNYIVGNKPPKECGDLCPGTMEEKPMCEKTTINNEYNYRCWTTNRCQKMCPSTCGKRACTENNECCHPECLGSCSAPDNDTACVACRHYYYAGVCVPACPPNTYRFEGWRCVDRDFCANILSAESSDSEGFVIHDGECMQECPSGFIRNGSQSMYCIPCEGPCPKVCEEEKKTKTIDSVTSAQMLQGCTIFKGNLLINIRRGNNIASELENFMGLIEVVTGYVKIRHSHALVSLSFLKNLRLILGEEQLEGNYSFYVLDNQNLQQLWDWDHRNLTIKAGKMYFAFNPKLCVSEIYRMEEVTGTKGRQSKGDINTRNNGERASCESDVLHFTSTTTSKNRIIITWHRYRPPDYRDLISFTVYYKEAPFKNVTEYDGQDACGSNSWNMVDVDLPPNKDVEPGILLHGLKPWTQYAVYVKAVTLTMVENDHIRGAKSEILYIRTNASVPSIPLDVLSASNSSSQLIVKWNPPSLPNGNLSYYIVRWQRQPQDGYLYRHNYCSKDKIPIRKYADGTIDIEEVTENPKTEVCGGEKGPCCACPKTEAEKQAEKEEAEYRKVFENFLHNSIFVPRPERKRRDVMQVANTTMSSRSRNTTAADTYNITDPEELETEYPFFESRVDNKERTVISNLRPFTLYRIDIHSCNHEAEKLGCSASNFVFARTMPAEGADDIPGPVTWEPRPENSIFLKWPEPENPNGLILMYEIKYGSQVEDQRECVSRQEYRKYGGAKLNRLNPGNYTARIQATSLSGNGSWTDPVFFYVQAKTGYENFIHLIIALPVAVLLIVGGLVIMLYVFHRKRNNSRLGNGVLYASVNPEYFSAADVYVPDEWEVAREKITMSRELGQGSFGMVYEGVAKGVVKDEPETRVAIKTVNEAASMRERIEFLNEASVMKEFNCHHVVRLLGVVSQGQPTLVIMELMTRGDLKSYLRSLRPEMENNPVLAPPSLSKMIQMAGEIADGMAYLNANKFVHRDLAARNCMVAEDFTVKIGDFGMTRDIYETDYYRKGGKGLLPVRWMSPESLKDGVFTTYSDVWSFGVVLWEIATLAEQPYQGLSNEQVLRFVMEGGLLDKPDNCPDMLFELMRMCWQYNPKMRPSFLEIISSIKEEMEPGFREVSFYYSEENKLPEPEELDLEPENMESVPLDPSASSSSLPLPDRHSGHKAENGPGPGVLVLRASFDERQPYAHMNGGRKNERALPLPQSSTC
assay-endpoint: IC50

Prompt line: Provide one value: measured IC50 of CCOc1ccc2nc(NC(=O)CSc3nnc(Cc4c[nH]c5ccccc45)o3)sc2c1
Response line: > 30 µM

---

Target: EGFR (Homo sapiens)
Sequence (P00533 25-1210): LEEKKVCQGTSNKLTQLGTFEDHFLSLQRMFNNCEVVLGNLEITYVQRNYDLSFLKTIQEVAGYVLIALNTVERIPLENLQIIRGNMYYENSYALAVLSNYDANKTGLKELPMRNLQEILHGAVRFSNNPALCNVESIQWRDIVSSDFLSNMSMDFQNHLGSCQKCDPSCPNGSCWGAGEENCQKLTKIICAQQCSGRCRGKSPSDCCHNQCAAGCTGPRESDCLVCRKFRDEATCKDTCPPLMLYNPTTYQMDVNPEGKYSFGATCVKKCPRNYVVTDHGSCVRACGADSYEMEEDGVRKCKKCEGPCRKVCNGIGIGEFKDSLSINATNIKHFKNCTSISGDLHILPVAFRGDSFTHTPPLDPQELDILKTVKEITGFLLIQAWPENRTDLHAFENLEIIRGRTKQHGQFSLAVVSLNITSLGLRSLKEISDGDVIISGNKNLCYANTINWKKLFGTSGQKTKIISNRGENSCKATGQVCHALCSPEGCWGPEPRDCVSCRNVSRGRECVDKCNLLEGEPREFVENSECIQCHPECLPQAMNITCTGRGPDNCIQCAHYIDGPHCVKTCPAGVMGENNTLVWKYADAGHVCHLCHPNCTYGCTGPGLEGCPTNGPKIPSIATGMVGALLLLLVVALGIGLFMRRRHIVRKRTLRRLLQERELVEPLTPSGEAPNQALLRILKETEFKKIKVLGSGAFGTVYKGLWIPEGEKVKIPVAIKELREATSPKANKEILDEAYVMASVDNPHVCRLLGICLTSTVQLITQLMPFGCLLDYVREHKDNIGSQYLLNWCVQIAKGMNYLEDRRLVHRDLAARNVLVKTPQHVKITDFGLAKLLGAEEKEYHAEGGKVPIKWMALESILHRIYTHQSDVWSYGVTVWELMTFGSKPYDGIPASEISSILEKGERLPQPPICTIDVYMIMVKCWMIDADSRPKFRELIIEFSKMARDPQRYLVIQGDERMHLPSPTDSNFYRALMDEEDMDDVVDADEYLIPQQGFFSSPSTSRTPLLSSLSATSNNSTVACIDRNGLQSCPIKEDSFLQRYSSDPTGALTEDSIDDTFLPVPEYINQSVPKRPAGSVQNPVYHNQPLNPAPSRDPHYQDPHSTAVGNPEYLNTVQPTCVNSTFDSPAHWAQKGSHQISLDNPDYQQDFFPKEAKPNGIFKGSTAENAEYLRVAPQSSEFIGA
assay-endpoint: pIC50
Kindly note that pIC50 refers to -log10 of the concentration in mol/L and answer with the value alone.

Prompt line: Provide one value: measured pIC50 of CCOc1ccc2nc(NC(=O)CSc3nnc(Cc4c[nH]c5ccccc45)o3)sc2c1
Response line: 5.55

---

Test system: HCT116 human colorectal carcinoma cell line
Test: MTT cytotoxicity assay, HCT116
Settings: HCT-116, 48 h, read-out: IC50 HCT-116 Cell Line
Parameter: IC50. Scope: all listed entries.
Express your answer in µM, writing the number without its unit.

| chemical-structure | assay-endpoint | readout-value |
| --- | --- | --- |
| O=C(CSc1nnc(Cc2c[nH]c3ccccc23)o1)Nc1nc2ccccc2s1 | IC50 | 26.2 |

// next entry
Prompt line: Provide one value: measured IC50 of CCOc1ccc2nc(NC(=O)CSc3nnc(Cc4c[nH]c5ccccc45)o3)sc2c1
Response line: 6.43

---

Target: PDGFRβ (Homo sapiens, UniProt P09619)
Sequence (P09619 33-1106): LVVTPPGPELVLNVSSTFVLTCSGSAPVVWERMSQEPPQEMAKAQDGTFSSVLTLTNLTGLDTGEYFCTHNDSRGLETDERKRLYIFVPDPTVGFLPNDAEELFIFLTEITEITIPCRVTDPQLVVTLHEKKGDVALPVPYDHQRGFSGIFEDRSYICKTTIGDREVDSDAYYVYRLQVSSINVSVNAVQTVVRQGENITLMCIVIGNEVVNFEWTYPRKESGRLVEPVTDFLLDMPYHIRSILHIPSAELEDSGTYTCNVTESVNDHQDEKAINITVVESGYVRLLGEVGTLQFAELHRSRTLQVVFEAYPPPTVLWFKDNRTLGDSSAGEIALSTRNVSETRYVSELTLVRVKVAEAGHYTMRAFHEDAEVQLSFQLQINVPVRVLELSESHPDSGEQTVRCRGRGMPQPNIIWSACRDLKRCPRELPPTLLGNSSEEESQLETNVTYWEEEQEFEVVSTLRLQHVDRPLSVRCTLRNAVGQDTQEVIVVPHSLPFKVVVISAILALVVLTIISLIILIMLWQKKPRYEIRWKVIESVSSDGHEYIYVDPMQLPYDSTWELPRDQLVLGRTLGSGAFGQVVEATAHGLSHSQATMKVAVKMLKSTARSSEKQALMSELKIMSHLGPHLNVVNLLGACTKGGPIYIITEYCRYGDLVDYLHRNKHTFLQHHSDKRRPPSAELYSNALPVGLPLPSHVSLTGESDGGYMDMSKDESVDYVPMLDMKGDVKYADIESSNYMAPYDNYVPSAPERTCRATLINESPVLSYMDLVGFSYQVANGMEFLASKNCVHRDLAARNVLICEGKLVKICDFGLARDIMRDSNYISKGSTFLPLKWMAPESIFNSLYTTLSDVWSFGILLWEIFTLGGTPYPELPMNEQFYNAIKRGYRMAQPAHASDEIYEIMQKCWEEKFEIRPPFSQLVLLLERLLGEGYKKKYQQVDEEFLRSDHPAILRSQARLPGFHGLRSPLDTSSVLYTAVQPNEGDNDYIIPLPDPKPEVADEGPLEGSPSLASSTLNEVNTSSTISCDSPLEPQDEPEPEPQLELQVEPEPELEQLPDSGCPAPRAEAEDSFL
assay-endpoint: pIC50
Kindly note that pIC50 refers to -log10 of the concentration in mol/L and answer with the value alone.

Prompt line: Provide one value: measured pIC50 of CCOc1ccc2nc(NC(=O)CSc3nnc(Cc4c[nH]c5ccccc45)o3)sc2c1
Response line: 5.21

---

Target chain: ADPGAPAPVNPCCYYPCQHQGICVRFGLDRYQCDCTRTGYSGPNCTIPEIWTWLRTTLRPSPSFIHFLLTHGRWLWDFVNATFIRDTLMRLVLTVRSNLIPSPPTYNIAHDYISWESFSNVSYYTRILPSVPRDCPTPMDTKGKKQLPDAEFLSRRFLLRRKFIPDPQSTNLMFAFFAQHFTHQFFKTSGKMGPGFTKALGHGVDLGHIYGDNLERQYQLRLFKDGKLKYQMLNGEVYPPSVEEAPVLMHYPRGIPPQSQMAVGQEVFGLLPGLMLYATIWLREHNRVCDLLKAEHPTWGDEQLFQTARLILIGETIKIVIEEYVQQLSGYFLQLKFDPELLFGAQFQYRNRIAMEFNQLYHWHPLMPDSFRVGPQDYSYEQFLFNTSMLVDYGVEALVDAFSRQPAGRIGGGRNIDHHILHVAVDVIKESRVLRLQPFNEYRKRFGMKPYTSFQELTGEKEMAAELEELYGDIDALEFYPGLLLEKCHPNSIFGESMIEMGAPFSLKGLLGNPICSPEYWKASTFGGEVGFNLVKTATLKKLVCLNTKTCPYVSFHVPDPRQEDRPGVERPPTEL
assay-endpoint: IC50 (µM)
Express your answer in µM, writing the number without its unit.

Prompt line: Provide one value: measured IC50 of CCOc1ccc2nc(NC(=O)CSc3nnc(Cc4c[nH]c5ccccc45)o3)sc2c1 [Compound 2e]
Response line: 73.5

---

System: HCT116 human colorectal carcinoma cell line
Assay: MTT cytotoxicity assay, HCT116
Details: HCT-116, 48 h, read-out: IC50 HCT-116 Cell Line
assay-endpoint: IC50

Solved entries:
| chemical-structure | IC50 |
| --- | --- |
| O=C(CSc1nnc(Cc2c[nH]c3ccccc23)o1)Nc1nccs1 | > 100 µM |
| O=C(CSc1nnc(Cc2c[nH]c3ccccc23)o1)Nc1nc2ccc(Cl)cc2s1 | > 100 µM |

// next entry
Prompt line: Provide one value: measured IC50 of O=C(CSc1nnc(Cc2c[nH]c3ccccc23)o1)Nc1nc2ccc(Br)cc2s1
Response line: > 100 µM
